- System: cyprids of barnacle B. amphitrite
- assay-procedure: Anti-larval settlement bioassay (antifouling activity and larval toxicity)
- Type: in vivo
- assay-setup: Amphibalanus amphitrite, 48 h, cyprids of B. amphitrite, 48 h at 28 °C, concentration where 50% of larvae were inhibited to settle vs negative control; read-out: EC50 (larval settlement inhibition)
readout-kind: EC50 (µM)
Give bare numbers, in µM.

As a guide, the following entries are already answered.
| chem-smiles | EC50 [µM] |
| --- | --- |
| COc1cc(C)cc(Oc2cc(C)cc(OC)c2OC)c1O | 18.2 |
| COc1cc(C)cc(Oc2cc(C)cc(OC)c2O)c1O | 18.4 |

Please go through the list and note EC50 for each compound.
1. CCCCCOc1cc(C)cc(Oc2cc(C)cc(OCCCCC)c2)c1
2. CCCCCOc1cc(C)cc(Oc2cc(C)cc(O)c2)c1

### Response
[12.2, 27.9]

###

- assay-procedure: Anti-larval settlement bioassay (antifouling activity and larval toxicity)
- Format: in vivo
- assay-setup: Balanus (Amphibalanus) amphitrite (barnacle cyprid larvae), in vivo; cyprids of B. amphitrite, 48 h at 28 °C, concentration where 50% of larvae were dead
readout-kind: LC50 (µM)
Numbers only, in µM.

Please go through the list and note LC50 for each compound.
1. COC(=O)c1c(C)c(Br)c(Oc2c(Br)c(C)c(Br)c(O)c2Br)c(Br)c1O
2. Cc1c(Br)c(O)c(Br)c(Oc2c(Br)c(C)c(Br)c(O)c2Br)c1Br

### Response
29.3
22

###

For each entry below, report its pEC50 value.
- System: cyprids of barnacle B. amphitrite
- assay-procedure: Anti-larval settlement bioassay (antifouling activity and larval toxicity)
- Type: in vivo
- assay-setup: Amphibalanus amphitrite, 48 h, cyprids of B. amphitrite, 48 h at 28 °C, concentration where 50% of larvae were inhibited to settle vs negative control; read-out: EC50 (larval settlement inhibition)
Numbers only, as −log10 of the molar value.

As a guide, the following entries are already answered.
| chem-smiles | readout-kind | recorded-value |
| --- | --- | --- |
| Cc1cc(C=O)c2c(C)cc3c(cc1-2)[C@@H](C)CO3 | pEC50 | 4.08 |
| C/C(=C\[C@H](O)C[C@@H](C)CCCc1ccoc1)CCCc1ccoc1 | pEC50 | 5.22 |
| COc1cc(C)cc(Oc2cc(C)cc(O)c2)c1 | pEC50 | 4.51 |

Shifting focus to the compound that follows.
### Prompt For `Cc1cc(C=O)c2c(C)ccc(C(C)C)cc1-2` , what is its reported pEC50?
### Response 4.38

###

- Test system: cyprids of barnacle B. amphitrite
- assay-procedure: Anti-larval settlement bioassay (antifouling activity and larval toxicity)
- Format: in vivo
- assay-setup: cyprids of B. amphitrite, 48 h at 28 °C, concentration where 50% of larvae were dead
readout-kind: LC50

| molecule | readout-kind | recorded-value |
| --- | --- | --- |
| COc1cc(C)c(C(=O)O[C@H]2[C@@H](OC(C)=O)[C@H](n3ccc(=O)[nH]c3=O)O[C@@H]2COC(C)=O)c(OC)c1 [compound 52, Diacetylkipukasin D] | LC50 | > 98.8 µM |
| CC(C)C(C)CCC(C)C1CCC(C2=CC(O)C3CC(O)CCC3(C)C2=O)C1(C)CCO (mixture of isomers) [compound 24] | LC50 | > 112 µM |
| CC(C)C(C)C=CC(C)C1CCC(C2=CC(O)C3CC(O)CCC3(C)C2=O)C1(C)CCO (centres unmarked) [compound 28] | LC50 | > 56.1 µM |
| C[C@]12CCC[C@H](O1)c1c(cc3c(c1O)C(=O)c1c(O)cc(O)cc1C3=O)O2 [compound 32, Averufin] | LC50 | > 136 µM |
| COc1cc(O)cc(C)c1C(=O)O[C@@H]1[C@H](O)[C@@H](CO)O[C@H]1n1ccc(=O)[nH]c1=O [compound 48, Kipukasin H] | LC50 | > 123 µM |

Please go through the list and note LC50 for each molecule.
1. CC(=O)OCCC1(C)C(C2=CC(OC(C)=O)C3CC(O)CCC3(C)C2=O)CCC1C(C)C=CCC(C)C (centres unmarked) [compound 30]
2. CC1=CC(=O)c2c(C)cc(C(=O)C(C)C)cc21 [compound 20, Ochracenoid B]
3. COc1cc(C)c(C(=O)O[C@@H]2[C@H](OC(C)=O)[C@@H](COC(C)=O)O[C@H]2n2ccc(=O)[nH]c2=O)c(OC)c1 [compound 51, Diacetylkipukasin E]
4. COc1cc(C)c(C(=O)O[C@H]2[C@@H](O)[C@H](n3ccc(=O)[nH]c3=O)O[C@@H]2CO)c(OC)c1 [compound 50, Kipukasin D]
5. CCCCCCCCn1sc(Cl)c(Cl)c1=O [Sea-Nine 211™, reference compound]
6. C=C(CCC(C)C1CCC(C2=CC(O)C3CC(O)CCC3(C)C2=O)C1(C)CCO)C(C)C (centres unmarked) [compound 27]
7. COc1cc(O)cc2c1C(=O)c1c(O)cc(CO)cc1C2=O [compound 35, Questinol]

### Response
["96.8 µM", "> 219 µM", "> 98.8 µM", "> 59.2 µM", "88.7 µM", "> 56.1 µM", "> 167 µM"]

Please go through the list and note LC50 for each molecule.
1. CC(C)CC=CC(C)C1CCC(C2=CC(O)C3CC(O)CCC3(C)C2=O)C1(C)CCO (centres unmarked) [compound 29]
2. COc1cc(O)cc2c1C(=O)c1c(cc3c(c1O)[C@H]1O[C@](C)(CC[C@@H]1O)O3)C2=O [compound 33, 8-O-methylnidurufin]
3. CC(C)C=CC(C)C1CCC(C2=CC(O)C3CC(O)CCC3(C)C2=O)C1(C)CCO (centres unmarked) [compound 25]
4. CC(C)CCCC(C)C1CCC(C2=CC(O)C3CC(O)CCC3(C)C2=O)C1(C)CCO (centres unmarked) [compound 26]
5. C[C@]12CC[C@H](O)[C@H](O1)c1c(cc3c(c1O)C(=O)c1c(O)cc(O)cc1C3=O)O2 [compound 34, Nidurufin]

### Response
1. 57.9 µM
2. > 126 µM
3. 59.8 µM
4. 57.6 µM
5. > 130 µM

Please go through the list and note LC50 for each molecule.
1. CC(=O)OCCC1(C)C(C2=CC(OC(C)=O)C3CC(OC(C)=O)CCC3(C)C2=O)CCC1C(C)C=CCC(C)C (centres unmarked) [compound 31]
2. CC[C@H](O)c1cc(O)c2c(c1)C(=O)c1cc(O)cc(O)c1C2=O [compound 39, Rhodoptilometrin]
3. C=CC(C)(C)c1[nH]c2ccccc2c1/C=C1\NC(=O)C2(C=C3c4cc(O)cc(O)c4C(=O)c4c(O)cc(C)c(c43)O2)NC1=O (centres unmarked) [compound 42, Variecolortide B]
4. COc1cc(O)cc2c1C(=O)c1c(O)cc(CO)c(O)c1C2=O [compound 36, ω-Hydroxyrubrocristin]

### Response
1: 96.8 µM; 2: 159 µM; 3: > 84.9 µM; 4: > 158 µM
